- Assay protocol: physchem
- Conditions used: aqueous dissolution medium at pH 4.5, pH 4.4, aqueous buffer

{"Molecule": "Nc1nc2c(ncn2COCCO)c(=O)[nH]1 [acyclovir, 9-[(2-hydroxyethoxy)methyl] guanine]", "Unit string": "µg/mL", "solubility": 2600}

###

- Assay protocol: physchem
- Conditions used: aqueous dissolution medium at pH 1.2, pH 1.2, simulated gastric fluid

{"Compound": "Nc1nc2c(ncn2COCCO)c(=O)[nH]1 [acyclovir, 9-[(2-hydroxyethoxy)methyl] guanine]", "solubility (µg/mL)": 3500}

###

- Assay protocol: octanol-water partition coefficient log P
- Format: physicochemical
- Conditions used: n-octanol and water
- Description: A criterion that can serve as a measure of the absorption of the solute through the wall of the small intestine is permeability, i.e., the fraction of the substance permeating through the intestinal wall. The physicochemical property of a molecule that makes the greatest contribution to permeability is liphophilicity. […]

{"Compound": "Nc1nc2c(ncn2COCCO)c(=O)[nH]1 [acyclovir, 9-[(2-hydroxyethoxy)methyl] guanine]", "logP": -1.57}

###

- Assay protocol: physchem
- Conditions used: FaSSIF (fasted state simulated intestinal fluid), fassif
Result type: solubility (µg/mL)

{"Compound": "Nc1nc2c(ncn2COCCO)c(=O)[nH]1 [acyclovir, 9-[(2-hydroxyethoxy)methyl] guanine]", "Result type": "solubility", "Reported result": 1440}
